target_under_test: Mitogen-activated protein kinase kinase kinase 11 (Homo sapiens, UniProt Q16584)
Sequence (Q16584 whole entry, looked up, the tested form may be a part): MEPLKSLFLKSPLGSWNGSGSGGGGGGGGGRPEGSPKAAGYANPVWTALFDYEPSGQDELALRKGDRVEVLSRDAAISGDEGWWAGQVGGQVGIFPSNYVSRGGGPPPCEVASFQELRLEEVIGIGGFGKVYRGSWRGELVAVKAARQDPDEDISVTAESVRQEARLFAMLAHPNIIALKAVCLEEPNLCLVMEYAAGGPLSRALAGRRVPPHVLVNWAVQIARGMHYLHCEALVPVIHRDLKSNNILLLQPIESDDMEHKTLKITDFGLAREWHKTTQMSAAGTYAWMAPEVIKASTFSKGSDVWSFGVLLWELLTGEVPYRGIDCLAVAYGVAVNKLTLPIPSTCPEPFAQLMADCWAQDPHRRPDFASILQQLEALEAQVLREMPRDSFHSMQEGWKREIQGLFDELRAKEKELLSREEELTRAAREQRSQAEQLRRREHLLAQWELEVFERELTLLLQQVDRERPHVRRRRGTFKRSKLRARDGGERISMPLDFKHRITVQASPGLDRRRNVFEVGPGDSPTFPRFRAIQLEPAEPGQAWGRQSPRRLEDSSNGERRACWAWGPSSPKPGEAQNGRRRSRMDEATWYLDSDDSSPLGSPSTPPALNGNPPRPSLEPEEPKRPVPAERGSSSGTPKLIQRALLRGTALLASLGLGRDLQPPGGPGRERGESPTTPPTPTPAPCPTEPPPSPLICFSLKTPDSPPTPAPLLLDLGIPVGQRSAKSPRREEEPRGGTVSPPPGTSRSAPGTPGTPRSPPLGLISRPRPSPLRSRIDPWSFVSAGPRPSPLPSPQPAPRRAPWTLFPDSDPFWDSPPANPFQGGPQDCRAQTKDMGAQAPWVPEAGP
protocol: Inhibition of GST-fused human MLK3 at 1 uM
property_label: inhibition (%)

Recorded results for 2 molecules are shown here.
N#CCCCOc1ccc2c(c1)CCc1c-2c2c(c3c4ccccc4n(CCO)c13)CNC2=O    46
O=C1NCc2c1c1c(c3c2c2ccccc2n3CCO)CCc2cc(OCc3ccccn3)ccc2-1    30

[1] O=C1NCc2c1c1c(c3c2c2ccccc2n3CCO)CCc2cc(OCC3CC3)ccc2-1
[2] O=C1NCc2c1c1c(c3c2c2ccccc2n3CCO)CCc2cc(OC3CCCCC3)ccc2-1
[3] O=C1NCc2c1c1c(c3[nH]c4ccccc4c23)CCc2cc(O)ccc2-1
Reorder: inhibition, max to min. Answer format: list of labels, ordered as asked.
1, 2, 3
(1: 32%, 2: 4%, 3: 0%)

###

target_under_test: Platelet-derived growth factor receptor beta (Homo sapiens, UniProt P09619)
Sequence (P09619 whole entry): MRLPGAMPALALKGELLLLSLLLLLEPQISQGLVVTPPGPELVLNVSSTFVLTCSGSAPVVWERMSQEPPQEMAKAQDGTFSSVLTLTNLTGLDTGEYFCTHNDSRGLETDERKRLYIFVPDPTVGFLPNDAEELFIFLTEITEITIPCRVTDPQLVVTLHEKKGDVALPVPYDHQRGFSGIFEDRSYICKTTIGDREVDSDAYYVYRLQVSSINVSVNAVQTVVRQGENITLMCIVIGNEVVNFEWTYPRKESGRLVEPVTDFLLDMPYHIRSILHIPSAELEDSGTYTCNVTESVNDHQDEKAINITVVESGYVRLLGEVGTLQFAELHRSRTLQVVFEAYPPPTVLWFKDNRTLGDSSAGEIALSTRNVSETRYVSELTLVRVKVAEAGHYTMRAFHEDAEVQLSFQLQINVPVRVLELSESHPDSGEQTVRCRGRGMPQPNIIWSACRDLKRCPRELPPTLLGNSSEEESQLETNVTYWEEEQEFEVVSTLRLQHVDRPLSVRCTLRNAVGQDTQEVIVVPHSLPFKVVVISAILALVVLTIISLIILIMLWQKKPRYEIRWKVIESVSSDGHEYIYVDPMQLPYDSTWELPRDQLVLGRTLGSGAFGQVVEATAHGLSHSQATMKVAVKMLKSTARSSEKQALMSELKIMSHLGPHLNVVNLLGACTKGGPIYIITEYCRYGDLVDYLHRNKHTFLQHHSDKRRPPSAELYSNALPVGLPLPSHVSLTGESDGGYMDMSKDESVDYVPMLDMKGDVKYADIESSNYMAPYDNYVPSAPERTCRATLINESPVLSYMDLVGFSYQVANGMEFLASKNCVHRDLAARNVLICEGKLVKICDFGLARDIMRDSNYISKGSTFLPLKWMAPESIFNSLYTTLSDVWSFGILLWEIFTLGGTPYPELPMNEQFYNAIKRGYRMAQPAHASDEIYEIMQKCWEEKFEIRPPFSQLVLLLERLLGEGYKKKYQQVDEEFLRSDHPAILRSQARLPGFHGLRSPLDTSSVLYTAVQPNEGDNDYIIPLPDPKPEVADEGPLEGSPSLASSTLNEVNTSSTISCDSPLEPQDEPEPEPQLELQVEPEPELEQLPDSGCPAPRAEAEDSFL
protocol: Inhibition of human PDGFRbeta expressed in baculovirus insect cell system
pIC50: −log10 of the molar value.
property_label: pIC50

If you can, please state the reported pIC50 value of COc1ccc2c(c1)CCc1c-2c2c(c3c4ccccc4n(CCO)c13)CNC2=O .
< 5.00

###

target_under_test: Mitogen-activated protein kinase kinase kinase 9 (Homo sapiens)
Sequence (P80192 whole entry, the tested form may be a part): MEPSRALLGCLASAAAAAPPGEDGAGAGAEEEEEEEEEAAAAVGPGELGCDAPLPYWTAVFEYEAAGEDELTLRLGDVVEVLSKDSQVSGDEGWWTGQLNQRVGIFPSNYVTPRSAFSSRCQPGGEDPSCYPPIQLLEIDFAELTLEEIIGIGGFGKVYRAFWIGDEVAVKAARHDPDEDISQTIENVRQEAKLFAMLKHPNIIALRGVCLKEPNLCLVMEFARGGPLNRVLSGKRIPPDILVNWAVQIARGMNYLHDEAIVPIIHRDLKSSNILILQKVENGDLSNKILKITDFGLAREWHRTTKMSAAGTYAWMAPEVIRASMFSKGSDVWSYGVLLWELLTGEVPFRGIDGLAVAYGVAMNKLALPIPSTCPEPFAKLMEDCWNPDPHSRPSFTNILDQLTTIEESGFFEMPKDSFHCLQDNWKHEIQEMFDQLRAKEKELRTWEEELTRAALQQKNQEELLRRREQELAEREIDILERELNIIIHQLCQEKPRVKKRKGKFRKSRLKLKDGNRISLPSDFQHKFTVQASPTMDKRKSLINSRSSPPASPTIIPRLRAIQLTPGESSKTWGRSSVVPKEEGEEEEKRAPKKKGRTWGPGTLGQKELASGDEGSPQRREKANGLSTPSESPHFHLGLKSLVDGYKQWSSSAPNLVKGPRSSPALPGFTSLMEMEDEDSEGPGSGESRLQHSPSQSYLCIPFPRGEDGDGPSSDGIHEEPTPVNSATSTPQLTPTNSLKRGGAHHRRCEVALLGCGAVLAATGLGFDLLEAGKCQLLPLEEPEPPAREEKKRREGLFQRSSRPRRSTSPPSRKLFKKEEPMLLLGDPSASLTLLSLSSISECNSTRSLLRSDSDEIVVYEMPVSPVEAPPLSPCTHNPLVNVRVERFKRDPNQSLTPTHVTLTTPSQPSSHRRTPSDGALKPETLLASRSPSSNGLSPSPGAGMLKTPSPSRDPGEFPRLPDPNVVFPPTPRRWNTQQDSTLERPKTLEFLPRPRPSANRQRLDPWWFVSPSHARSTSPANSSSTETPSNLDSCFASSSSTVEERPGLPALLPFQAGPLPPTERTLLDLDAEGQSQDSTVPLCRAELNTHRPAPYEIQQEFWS
protocol: Inhibition of GST-fused human MLK1
property_label: IC50 (nM)

COc1ccc2c(c1)CCc1c-2c2c(c3c4ccccc4n(CCCO)c13)CNC2=O    101

[A] COc1ccc2c(c1)CCc1c-2c2c(c3c4ccccc4n(CCO)c13)CNC2=O
[B] CC(C)Oc1ccc2c(c1)CCc1c-2c2c(c3c1[nH]c1ccccc13)CNC2=O
Sorting ascending by IC50, which comes first: A or B ? Could you answer with the label of the item you picked?
B
(B: 66 nM, A: 103 nM)
